Provide the recorded Percent Effect for the entries that follow.
- Test system: Wolbachia pipientis
- experiment_description: Anti-Wolbachia Cell-Based Screen
- Type: functional
- Parameters: scale not given: in the data most compounds retested in dose-response had high values
- conditions_used: 5 µM
Hit rate of the full screen: of about 48,000 compounds, about 13,000 (27%) showed an effect of 50% or more. Some of the results follow.
Numbers only, in %.

[[record]]
compound = "CN(C)c1ncc(I)c(C2CCCN2C)n1.Cl (centres undefined)"
quantitative_result = 88.04


Batch request: Percent Effect for each of the following compounds.
1. CS(=O)(=O)N1CCO[C@@H]2CN(C(=O)C3CCOC3)CC[C@@H]2C1 (some centres undefined)
2. CCc1noc(CS(=O)(=O)CC=C(C)C)n1
3. Cc1nn(C)c(C)c1C(C)NC(=O)Nc1cccnc1N1CCCC1 (centres undefined)
4. CC1CCCCN1C(=O)Cn1cc(I)cn1 (centres undefined)
5. O=C(NCC1(c2ccc(F)cc2)CCC1)N1CCC2(CCOCC2)C1
6. Cn1c(Cn2ccnc2)nnc1C1CCCN(c2ncccn2)C1 (centres undefined)
7. Cc1ncccc1C(=O)N1CCC2(CCc3ccccc3C(=O)N2)C1 (centres undefined)
8. CCn1cc(S(=O)(=O)NC(=O)CCc2c[nH]c3ccccc23)cn1

Reply:
1: 99.33; 2: -4.555; 3: 8.996; 4: 11.08; 5: -1.308; 6: 5.27; 7: 98.8; 8: 5.036

Would you mind giving Percent Effect for every compound in the list below?
1. Cc1csc(CNC(=O)N(C)Cc2nnc3n2CCC3)n1
2. Cc1ncc2c(n1)CN(Cc1nnc(-c3occc3C)o1)CC2
3. CCc1ccc(OCC(O)CN2CCN(CC)CC2)cc1 (centres undefined)
4. CC(C)N(C)C(=O)c1ccc(CNc2ncc(C#N)cc2Cl)cc1

Reply:
1. -16.98
2. 2.201
3. 71.19
4. -8.928

Hi team, please reply with Percent Effect for each item in this list.
1. C[C@H](NS(C)(=O)=O)C(=O)NCc1cc(-c2ccco2)n(CC(F)(F)F)n1
2. CCS(=O)(=O)Nc1ccc2c(c1)OCC(C)(C)C(=O)N2C
3. CC(C)(C)CN[C@@H]1CO[C@H](CNC(=O)c2cccs2)[C@H]1O
4. CC(C)NC(=O)CNC(=O)C12CCC(=O)N1c1cc(Cl)ccc1S2 (centres undefined)
5. O=C(C1CCCC1)N1CCCC(c2cccc(-n3ccnc3)n2)C1 (centres undefined)

Reply:
1: 97.84; 2: 121.3; 3: -6.649; 4: -9.931; 5: 109.1

State the recorded Percent Effect for every item in the following list.
1. CN(CCCc1ccc(C(F)(F)F)cc1)Cc1nccn1C
2. Cc1c(C)n(CC(O)CN2CCN(CCO)CC2)c2c(Cl)cccc12.Cl (centres undefined)
3. CC(Cc1cccs1)C(=O)NCc1cccc(N2CCCC2=O)c1 (centres undefined)
4. Cc1nccc(-c2ccccc2)c1C(=O)N1CC[C@](C)(O)C(C)(C)C1
5. O=C1CCC2(CCCN(C(=O)c3cccnc3)CC2)N1 (centres undefined)
6. CC(C)CC(NS(C)(=O)=O)C(=O)N(C)Cc1nnc2n1CCC2 (centres undefined)
7. CCN1CCN(CC(O)c2ccc(OC(F)(F)F)cc2)CC1 (centres undefined)
8. CN(C)c1ncc(I)c(C2CCCN2S(C)(=O)=O)n1 (centres undefined)

Reply:
-12.04
3.197
1.255
-0.4275
-2.669
-5.124
1.039
113.9

Need Percent Effect for each of these compounds.
1. CSc1nc(N)cc(N2C[C@@H]3CC[C@H](C2)N(Cc2cscn2)C3=O)n1
2. O=C1NC2(CCc3ccccc31)CCN(C(=O)c1ccncc1)C2 (centres undefined)
3. CCS(=O)(=O)Nc1ccc2[nH]c(C3CCC3)nc2c1
4. CCc1ccc(CN2CC[C@@H]3CN(S(C)(=O)=O)CCO[C@@H]3C2)o1.O=C(O)C(F)(F)F
5. CC(C)NC(=O)NCCn1nc(C(F)(F)F)n(C)c1=O
6. CC(C)NC(=O)NCc1cc(-c2ccco2)n(CC(F)(F)F)n1

Reply:
0.1745
94.99
5.664
2.069
-4.799
112.4

The following compounds each have a reported value; give each one's Percent Effect.
1. O=C(O)c1ccnc(-c2ccnc(N3CCC(F)(F)CC3)n2)c1
2. O=C(NCCCOC1CCCCC1)C1NCCc2[nH]cnc21 (centres undefined)
3. CCC(C)(NCc1nnc(C(C)(C)C)o1)c1nccs1 (centres undefined)
4. CN(Cc1ccc(O)cc1)C(=O)NCc1nnc2n1CCCCC2
5. CCc1ncc2c(n1)CN(Cc1nnc(C)o1)CC2
6. Cc1ccc(-c2nnc(CN3CCc4cnc(C)nc4C3)o2)cc1
7. Cl.c1cnc(N2CCCC(NCc3ccc(-n4ccnc4)cc3)C2)nc1 (centres undefined)

Reply:
1: -4.386; 2: -2.739; 3: -1.916; 4: 89.08; 5: 12.23; 6: -1.089; 7: 24.04
